Every entry's value here was drawn from the supplement of paper PMC11865577.

Test system: TO-N3 (biotin conjugate)
Assay: pull-down binding Z-score (relative to library population); higher = stronger binding
Conditions: RNA library: Library-2
Parameter pull-down binding Z-score: see the listing below.
quantityName: pull-down binding Z-score

querySequence	measurement
CUGGCUGGUCCAGCCCCUCAGAAG [hsa-mir-6796]	1.39
CCUGGAGAGCUGCUGUCUCCAG [hsa-mir-6746]	0.0297
AUCAGUUCUCAUUUUACACACUGGC [hsa-mir-24-1]	-0.54
UUUGCCAAUAAAAGUAAUGACAAA [hsa-mir-548ah]	0.226
CACCACUUAACCGAAAUUAUGUCUUUACUGGUUAUCGUGUAACUAAAAACAGUAAAGUACAAAUAGGAGAGUACACCUUUGAAAAAGGUGACUAUGGUG	-0.623
UCAAUUAUUAUAAGAAAGUUGA	0.0296
UCUUCUUUUGGAAGGAAGA [hsa-mir-3122]	-0.591
GGCCGGUCAGGCA [hsa-mir-4689]	0.576
UAAAGAACUUUAAGUCAGUUCUUUA	-1.25
UGGCACAGAUCCAAUACCUUCUGUCCCC [hsa-mir-6810]	-0.118
CCUUCUAAUGAGUAUGCUUAACUUGGUAGAAGG [hsa-mir-3914-1]	-0.141
